- target_of_assay: T1, Human ST2-his (human, UniProt Q01638 19-328)
- T1 construct: Expressed in CHO-K1; also called human ST2 fused with a 6-histidine tag at the C-terminus
- T1 sequence: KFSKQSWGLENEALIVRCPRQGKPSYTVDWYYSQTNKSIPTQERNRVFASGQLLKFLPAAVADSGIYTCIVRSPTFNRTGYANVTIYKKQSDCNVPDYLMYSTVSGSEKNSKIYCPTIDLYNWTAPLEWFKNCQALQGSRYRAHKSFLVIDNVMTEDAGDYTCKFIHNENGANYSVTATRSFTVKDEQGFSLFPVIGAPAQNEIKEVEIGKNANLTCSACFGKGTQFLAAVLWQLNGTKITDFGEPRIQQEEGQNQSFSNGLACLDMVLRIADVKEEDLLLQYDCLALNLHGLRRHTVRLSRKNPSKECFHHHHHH
- experiment_notes: SPR Biacore X100, antibody on protein A, ST2-his analyte
pKd: −log10 of the molar value.
Let's look at some binders and their measured pKd.
measured_quantity: pKd

>  <binder>
5888-116H1+L1 (antibody, V domains shown, murine antibody) VH: QVQLQQSGAELVRPGASVTLSCKASGYTFTDSEMYWVRLTPVHGLEWIGAIDPETGDTAFNQKFKGKATLTADKSSSTAYMELRSLTSEDSVVYYCTRAFDNDNDDGFAYWGQGTLVTVSA VL: QIVMTQSPAIMSASPGEKVTMTCSASSSVNYMHWYQQKSGTSPKRWIYDTSKLASGVPARFSGSGSGTSYSLTISSMEAEDAATYYCQQWSSNPLTFGAGTKLELK

>  <test_value>
9.95

$$$$
>  <binder>
5886-156H+L (antibody, V domains shown, murine antibody) VH: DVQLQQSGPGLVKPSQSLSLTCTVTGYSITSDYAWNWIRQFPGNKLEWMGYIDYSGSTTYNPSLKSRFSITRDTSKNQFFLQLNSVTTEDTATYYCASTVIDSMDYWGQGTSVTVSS VL: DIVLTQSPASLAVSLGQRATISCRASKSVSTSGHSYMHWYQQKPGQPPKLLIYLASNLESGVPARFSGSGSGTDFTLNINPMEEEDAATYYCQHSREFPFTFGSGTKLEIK

>  <test_value>
9.34

$$$$
>  <binder>
5888-153H1+L2 (antibody, V domains shown, murine antibody) VH: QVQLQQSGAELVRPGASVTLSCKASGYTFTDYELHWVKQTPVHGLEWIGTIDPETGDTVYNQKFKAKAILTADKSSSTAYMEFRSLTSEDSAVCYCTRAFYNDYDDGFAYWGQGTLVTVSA VL: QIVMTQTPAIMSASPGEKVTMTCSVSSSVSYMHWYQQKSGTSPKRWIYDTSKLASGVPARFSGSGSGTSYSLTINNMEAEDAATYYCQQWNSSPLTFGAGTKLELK

>  <test_value>
10.03

$$$$
>  <binder>
5887-537H3+L1 (antibody, V domains shown, murine antibody; also called 5887-537H3H+L1) VH: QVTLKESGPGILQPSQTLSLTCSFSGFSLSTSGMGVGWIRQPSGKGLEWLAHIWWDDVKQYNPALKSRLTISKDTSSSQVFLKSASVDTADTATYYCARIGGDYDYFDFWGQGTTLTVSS VL: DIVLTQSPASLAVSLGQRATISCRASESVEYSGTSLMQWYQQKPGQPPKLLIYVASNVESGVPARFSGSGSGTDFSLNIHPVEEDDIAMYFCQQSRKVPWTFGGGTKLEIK

>  <test_value>
9.77

$$$$
>  <binder>
5888-357H+L (antibody, V domains shown, murine antibody) VH: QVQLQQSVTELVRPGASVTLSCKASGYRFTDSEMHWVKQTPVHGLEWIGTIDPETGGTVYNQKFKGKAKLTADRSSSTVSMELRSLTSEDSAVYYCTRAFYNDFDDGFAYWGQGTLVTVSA VL: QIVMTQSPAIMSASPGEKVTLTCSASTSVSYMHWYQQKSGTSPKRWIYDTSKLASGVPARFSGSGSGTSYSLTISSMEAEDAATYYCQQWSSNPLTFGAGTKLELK

>  <test_value>
9.80

$$$$
>  <binder>
Control antibody CNTO7160 (antibody, human IgG4 S228P, kappa, V domains shown) VH: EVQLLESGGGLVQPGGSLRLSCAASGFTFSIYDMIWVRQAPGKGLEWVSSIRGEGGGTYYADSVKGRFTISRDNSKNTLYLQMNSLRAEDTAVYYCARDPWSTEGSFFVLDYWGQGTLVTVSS VL: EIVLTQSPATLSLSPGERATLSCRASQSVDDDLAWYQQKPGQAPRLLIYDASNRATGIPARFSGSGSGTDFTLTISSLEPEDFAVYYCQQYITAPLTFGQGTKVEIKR

>  <test_value>
9.16

$$$$
>  <binder>
5888-379H1+L2 (antibody, V domains shown, murine antibody) VH: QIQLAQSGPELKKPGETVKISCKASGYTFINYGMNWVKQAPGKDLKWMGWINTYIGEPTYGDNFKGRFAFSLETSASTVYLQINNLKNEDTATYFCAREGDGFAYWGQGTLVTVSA VL: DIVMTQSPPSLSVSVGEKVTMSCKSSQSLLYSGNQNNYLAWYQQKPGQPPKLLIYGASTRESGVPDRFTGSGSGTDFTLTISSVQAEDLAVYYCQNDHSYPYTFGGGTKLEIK

>  <test_value>
9.24

$$$$
>  <binder>
5887-41H+L (antibody, V domains shown, murine antibody) VH: DVQLQQSGPGLVKPSQSLSLTCTVTGYSITSDYAWDWIRQFPGNKLEWMGYIRYSGDTYYNPSLKSRISITRDTSKNQFFLQLNSVTTEDTATYYCATTMMDTMDYWGQGTSVTVSS VL: DIVLTQSPASLTVSLGQRATISCRASKSVSTSGNSYMHWYQQKPGQPPKLLIYLASNLESGVPARFSGSGSGTDFTLNIHPVEEEDAATYYCQHSREFPLTFGAGTKLELK

>  <test_value>
9.25

$$$$
